System: H9c2
Test: Protection against doxorubicin-induced cardiotoxicity in rat H9c2 cells assessed as increase in cell viability at 10 uM preincubated for 24 hrs followed by doxorubicin stimulation and measured after 24 hrs
Assay type: functional, cell-based
Settings: time 48.0 hrs
Activity calls are given as the source filed them. The calls are words filed in the database; no cut-off is given here.
Pick one and only one: 1 (active), -1 (inactive)

INSERT INTO measurements (chemical_smiles, assayed_target, class) VALUES
  ('Cc1cc(CO)c(C(C)C)cc1OC(=O)CCOC(=O)c1cccc(O)c1', 'H9c2', -1),
  ('Cc1cc(CO)c(C(C)C)cc1OC(=O)COC(=O)c1cccc(O)c1', 'H9c2', -1);

Kindly consider the entry below.
Request: Call for entry Cc1cc(CO)c(C(C)C)cc1OCCCOC(=O)c1cccc(O)c1 :
Result: -1

----------
System: H9c2
Assay: Protection against doxorubicin-induced cardiotoxicity in rat H9c2 cells assessed as increase in cell viability at 10 uM preincubated for 24 hrs followed by doxorubicin stimulation and measured after 24 hrs
Assay type: functional, cell-based
Conditions: time 48.0 hrs
Active and inactive are the calls of the source. The calls are words filed in the database; no cut-off is given here.
Measured Attribute: Activity

INSERT INTO results (compound, reported_result) VALUES
  ('Cc1cc(CO)c(C(C)C)cc1OCCCCOC(=O)c1cccc(O)c1', 'inactive'),
  ('O=C(O)c1cccc(O)c1 [3-HYDROXYBENZOIC ACID]', 'inactive'),
  ('Cc1cc(CO)c(C(C)C)cc1OC(=O)CCCOC(=O)c1cccc(O)c1', 'inactive');

----------
Tested on: H9c2
Assay: Protection against doxorubicin-induced cardiotoxicity in rat H9c2 cells assessed as increase in cell viability at 10 uM preincubated for 24 hrs followed by doxorubicin stimulation and measured after 24 hrs
Assay type: functional, cell-based
Conditions: time 48.0 hrs
Calls of active or inactive are those of the source. The calls are words filed in the database; no cut-off is given here.
Measured Attribute: Activity

INSERT INTO assay_data (chemical_smiles, assayed_target, reported_result) VALUES
  ('Cc1cc(CO)c(C(C)C)cc1OCCOC(=O)c1cccc(O)c1', 'H9c2', 'inactive'),
  ('Cc1ccc(C(C)C)cc1O', 'H9c2', 'inactive');
